What IC50 was measured for each of the following?

Give the reported IC50 for Cc1c(Cc2ccc3cc(F)ccc3n2)c2cc(C#N)ccn2c1CC(=O)O [Example 6] (system: CRTH2 receptor (Homo sapiens)).
Sequence (Q9Y5Y4 whole entry): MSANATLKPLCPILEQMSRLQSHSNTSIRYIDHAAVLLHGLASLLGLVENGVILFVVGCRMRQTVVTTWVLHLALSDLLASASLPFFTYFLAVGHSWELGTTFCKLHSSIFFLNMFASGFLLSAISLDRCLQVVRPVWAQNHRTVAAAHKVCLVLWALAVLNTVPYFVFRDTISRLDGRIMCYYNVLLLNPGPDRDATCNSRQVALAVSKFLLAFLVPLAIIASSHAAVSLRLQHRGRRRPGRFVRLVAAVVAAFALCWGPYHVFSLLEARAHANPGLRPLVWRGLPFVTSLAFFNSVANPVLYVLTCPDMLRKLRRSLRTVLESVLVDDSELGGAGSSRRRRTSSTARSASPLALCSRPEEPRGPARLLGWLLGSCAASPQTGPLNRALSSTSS
19 nM

Give the reported IC50 for Cc1c(Cc2ccc(S(=O)(=O)N3CCOCC3)cc2)c2cc(C#N)ccn2c1CC(=O)O [Example 1] (system: CRTH2 receptor (Homo sapiens)).
58 nM
